- Tgt: T1, recombinant extracellular domain (ECD) of human TF, amino acid 1-219 of the mature chain, C-terminal His6-tag (human, UniProt P13726 33-251)
- T1 construct: expressed in a mammalian system; used for ELISA and Biacore; biotinylated by NHS-ester for the Fab ELISA; also called His6-TF-ECD1-219; HumanTF1-219
- Procedure details: Biacore
Label not fulfilled if kon falls below 90000 M⁻¹ s⁻¹; label fulfilled in every other case.

{"Binder": "M1599 (antibody, V domains shown, complete MAb; FR4 is its own entry; also called H130/L3) VH: EVQLVQSGAEVKKPGESLRISCKGSGYTFGPYWIEWVRQMPGKGLEWMGDILPGTGYTLYSPSFQGHVTISADKSISTAYLQWSSLKASDTAMYYCARSGYYGNSGFAYWGQGTLVTVSS VL: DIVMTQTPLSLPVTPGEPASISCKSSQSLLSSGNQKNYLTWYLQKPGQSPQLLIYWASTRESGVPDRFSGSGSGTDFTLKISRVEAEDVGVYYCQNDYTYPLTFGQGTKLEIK", "Qualitative label": "fulfilled"}
{"Binder": "M68 (antibody, V domains shown, complete MAb; FR4 is its own entry; also called H23/L5) VH: QVQLVQSGAEVKKPGSSVKVSCKASGYTFITYWIEWVRQAPGQGLEWMGDILPGSGSTNYAQKFQGRVTITADESTSTAYMELSSLRSEDTAVYYCARSGYYGNSGFAYWGQGTLVTVSS VL: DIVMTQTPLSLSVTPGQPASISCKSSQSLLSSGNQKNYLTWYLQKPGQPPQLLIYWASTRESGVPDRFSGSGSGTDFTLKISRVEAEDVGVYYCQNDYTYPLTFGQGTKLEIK", "Qualitative label": "not fulfilled"}
{"Binder": "M1597 (antibody, V domains shown, complete MAb; FR4 is its own entry; also called H134/L3) VH: EVQLVQSGAEVKKPGESLRISCKGSGYTFSSYWIEWVRQMPGKGLEWMGDILPGTGATHYSPSFQGHVTISADKSISTAYLQWSSLKASDTAMYYCARSGYYGNSGFAYWGQGTLVTVSS VL: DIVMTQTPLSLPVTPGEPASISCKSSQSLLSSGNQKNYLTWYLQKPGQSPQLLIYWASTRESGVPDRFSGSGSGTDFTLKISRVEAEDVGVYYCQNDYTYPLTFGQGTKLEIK", "Qualitative label": "not fulfilled"}
{"Binder": "M9 (antibody, V domains shown, complete MAb; FR4 is its own entry; also called H15/L2) VH: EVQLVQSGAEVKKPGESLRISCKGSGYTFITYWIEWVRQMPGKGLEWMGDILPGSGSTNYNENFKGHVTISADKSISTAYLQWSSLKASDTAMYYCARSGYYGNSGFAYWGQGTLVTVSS VL: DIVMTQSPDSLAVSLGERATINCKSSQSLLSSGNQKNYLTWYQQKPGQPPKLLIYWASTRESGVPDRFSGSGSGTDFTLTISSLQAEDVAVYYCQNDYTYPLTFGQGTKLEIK", "Qualitative label": "fulfilled"}
